Parameter: IC50. Scope: all listed entries.
molecular target: recombinant human Nav1.7 (Homo sapiens (Human), UniProt Q15858); experiment: FRET-based membrane potential assay, recombinant human sodium channel Nav1.7; assay type: cell-based; conditions: HEK293 cells stably expressing recombinant human Nav1.7; veratridine + scorpion venom depolarization; read-out: FRET-Membrane Potential Nav1.7 IC50
Sequence (Q15858 whole entry): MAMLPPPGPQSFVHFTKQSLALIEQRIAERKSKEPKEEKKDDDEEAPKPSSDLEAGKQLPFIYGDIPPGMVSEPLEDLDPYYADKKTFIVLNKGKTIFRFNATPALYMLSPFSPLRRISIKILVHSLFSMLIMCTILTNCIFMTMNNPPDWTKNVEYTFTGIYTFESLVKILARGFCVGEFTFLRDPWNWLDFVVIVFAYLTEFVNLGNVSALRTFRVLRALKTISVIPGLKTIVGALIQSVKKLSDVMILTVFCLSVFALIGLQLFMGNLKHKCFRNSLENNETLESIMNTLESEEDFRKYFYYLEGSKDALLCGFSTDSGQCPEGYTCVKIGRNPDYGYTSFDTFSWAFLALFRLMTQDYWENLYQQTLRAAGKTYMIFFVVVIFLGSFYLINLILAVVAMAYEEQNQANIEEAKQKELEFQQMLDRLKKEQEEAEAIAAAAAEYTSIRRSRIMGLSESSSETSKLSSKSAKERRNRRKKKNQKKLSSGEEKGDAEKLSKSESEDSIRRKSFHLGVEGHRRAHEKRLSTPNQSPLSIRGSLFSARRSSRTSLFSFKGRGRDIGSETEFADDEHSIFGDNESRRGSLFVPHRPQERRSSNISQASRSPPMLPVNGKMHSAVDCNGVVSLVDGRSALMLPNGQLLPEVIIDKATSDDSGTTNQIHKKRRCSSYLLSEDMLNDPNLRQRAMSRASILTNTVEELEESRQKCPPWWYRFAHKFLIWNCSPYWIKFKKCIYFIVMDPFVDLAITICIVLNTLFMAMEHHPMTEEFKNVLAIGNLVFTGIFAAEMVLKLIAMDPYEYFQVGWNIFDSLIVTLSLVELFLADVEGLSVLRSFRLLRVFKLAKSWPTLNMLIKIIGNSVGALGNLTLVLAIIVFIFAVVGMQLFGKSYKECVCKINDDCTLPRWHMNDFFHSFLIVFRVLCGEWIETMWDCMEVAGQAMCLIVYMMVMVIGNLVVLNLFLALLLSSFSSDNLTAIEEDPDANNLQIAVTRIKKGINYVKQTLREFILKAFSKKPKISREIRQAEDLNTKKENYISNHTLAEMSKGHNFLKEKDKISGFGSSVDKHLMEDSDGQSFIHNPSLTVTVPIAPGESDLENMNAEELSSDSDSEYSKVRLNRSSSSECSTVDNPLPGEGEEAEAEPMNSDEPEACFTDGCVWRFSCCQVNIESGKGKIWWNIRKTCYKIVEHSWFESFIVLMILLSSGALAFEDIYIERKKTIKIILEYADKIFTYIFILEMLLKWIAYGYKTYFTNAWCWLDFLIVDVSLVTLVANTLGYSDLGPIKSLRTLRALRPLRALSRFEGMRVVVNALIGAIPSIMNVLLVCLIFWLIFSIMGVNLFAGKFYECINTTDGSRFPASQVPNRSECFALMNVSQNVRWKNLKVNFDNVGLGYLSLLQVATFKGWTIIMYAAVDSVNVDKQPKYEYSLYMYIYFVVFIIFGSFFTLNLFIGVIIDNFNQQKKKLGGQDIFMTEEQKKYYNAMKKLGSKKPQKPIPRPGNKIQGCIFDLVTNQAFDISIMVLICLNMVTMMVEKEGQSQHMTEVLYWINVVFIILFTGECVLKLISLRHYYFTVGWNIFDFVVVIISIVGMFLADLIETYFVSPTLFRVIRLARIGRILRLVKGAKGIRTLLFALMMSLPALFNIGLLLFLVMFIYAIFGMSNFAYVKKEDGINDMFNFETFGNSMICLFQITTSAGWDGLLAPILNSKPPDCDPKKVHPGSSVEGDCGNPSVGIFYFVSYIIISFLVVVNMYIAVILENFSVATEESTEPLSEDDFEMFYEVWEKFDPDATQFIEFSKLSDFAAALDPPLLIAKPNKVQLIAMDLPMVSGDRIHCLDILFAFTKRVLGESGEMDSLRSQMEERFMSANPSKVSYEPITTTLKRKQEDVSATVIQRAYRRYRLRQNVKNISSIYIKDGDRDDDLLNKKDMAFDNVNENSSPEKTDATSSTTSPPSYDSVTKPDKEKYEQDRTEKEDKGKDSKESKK
Property label: IC50 (nM)

>>> reported_measurement("CO[C@H]1C[C@H](NC(=O)c2ccc3cc(Oc4ccc(C(F)(F)F)cn4)ccc3n2)C1")
896
>>> reported_measurement("O=C(c1ccc2cc(Oc3ccc(C(F)(F)F)nc3)ccc2n1)N1CCN[C@H](CO)C1")
3700
>>> reported_measurement("CNS(=O)(=O)N1CCN(C(=O)c2ccc3cc(Oc4ccc(C(F)(F)F)cn4)ccc3n2)CC1")
2360
>>> reported_measurement("O=C(NC1CSC1)c1ccc2cc(Oc3ccc(C(F)(F)F)cn3)ccc2n1")
938
>>> reported_measurement("O=C(NCCN1CCSCC1)c1ccc2cc(Oc3ccc(C(F)(F)F)cn3)ccc2n1")
356
>>> reported_measurement("O=C(NCCn1ccnc1)c1ccc2cc(Oc3ccc(C(F)(F)F)cn3)ccc2n1")
830
>>> reported_measurement("O=C(c1ccc2cc(Oc3ccc(OC(F)F)cn3)ccc2n1)N1CCNCC1")
3190
>>> reported_measurement("CC(C)(C)N1CCN(C(=O)c2ccc3cc(Oc4ccc(C(F)(F)F)cn4)ccc3n2)CC1")
1150

Ref: patent US9452986B2
